Kindly state normalized growth for each of the entries shown.
Assay: chemical genetic growth profiling, strain panel (AID 1159580);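 also: tested at 20 µM; growth read once vehicle control cultures reached saturation at 30 °C; 1 = growth at the plate median or of vehicle wells; lower values mean less growth of the strain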
Conditions: S. cerevisiae deletion strains, growth OD, locus YLR384C, strain iki3, active compounds read low
About 2,000 (36%) of roughly 5,500 compounds were called active. Inconclusive results (about 18%) are left out. This is one part of the list.
Give only the figure.

Q: # lookup: normalized growth of O=C(O[C@@H]1Cc2c(O)cc(O)cc2O[C@@H]1c1cc(O)c(O)c(O)c1)c1cc(O)c(O)c(O)c1
Ans: 0.94

Q: # lookup: normalized growth of COc1ccc(C(=O)CC(=O)O)c2c1C=CC(C)(C)O2
Ans: 0.99

Q: # lookup: normalized growth of COc1ccc(CN(CCN(C)C)c2ccccn2)cc1
Ans: 1.02

Q: # lookup: normalized growth of CO/N=C1/CN(c2nc3c(cc2F)c(=O)c(C(=O)O)cn3C2CC2)CC1CN (configuration not stated)
Ans: 1.01

Q: # lookup: normalized growth of CC[C@]1(O)CC2CN(CCc3c([nH]c4ccccc34)[C@@](C(=O)OC)(c3cc4c(cc3OC)N(C)[C@H]3[C@@](O)(C(=O)OC)[C@H](OC(C)=O)[C@]5(CC)C=CCN6CC[C@]43[C@@H]65)C2)C1 (some centres not stated)
Ans: 0.967

Q: # lookup: normalized growth of CCCCNC(=O)NS(=O)(=O)c1ccc(C)cc1
Ans: 1.02

Q: # lookup: normalized growth of O=C(/C=C/c1ccc(O)c(O)c1)OC(Cc1ccc(O)c(O)c1)C(=O)O (configuration not stated)
Ans: 1

Q: # lookup: normalized growth of O=C(Oc1cc(OC(=O)c2ccccc2)c2c(c1)O[C@H](c1ccc(OC(=O)c3ccccc3)c(OC(=O)c3ccccc3)c1)[C@@H](OC(=O)c1ccccc1)C2)c1ccccc1
Ans: 1.01

Q: # lookup: normalized growth of C=CCc1ccc(OC)cc1
Ans: 1.01

Q: # lookup: normalized growth of CCn1cc(C(=O)O)c(=O)c2cc(F)c(N3CCNCC3)nc21
Ans: 0.983

Q: # lookup: normalized growth of O=C(O)c1cc2cc(F)ccc2[nH]1
Ans: 0.965

Q: # lookup: normalized growth of CCCCC/C=C/CCC(=O)N[C@H]1[C@H](Oc2c3cc4cc2Oc2ccc(cc2Cl)[C@@H](O[C@@H]2O[C@H](CO)[C@@H](O)[C@H](O)[C@H]2NC(C)=O)[C@@H]2NC(=O)[C@H](NC(=O)[C@@H]4NC(=O)[C@H]4NC(=O)C(Cc5ccc(c(Cl)c5)O3)NC(=O)[C@H](N)c3ccc(O)c(c3)Oc3cc(O)cc4c3)c3ccc(O)c(c3)-c3c(OC4O[C@H](CO)[C@@H](O)[C@H](O)[C@@H]4O)cc(O)cc3[C@@H](C(=O)O)NC2=O)O[C@H](CO)[C@@H](O)[C@@H]1O (some centres not stated)
Ans: 1

Q: # lookup: normalized growth of CC1COc2c(N3CCN(C)CC3)c(F)cc3c(=O)c(C(=O)O)cn1c23 (configuration not stated)
Ans: 0.965

Q: # lookup: normalized growth of c1ccc2c(c1)CCCC2C1=NCCN1 (configuration not stated)
Ans: 1.03

Q: # lookup: normalized growth of C=CCc1ccc(O)c(OC)c1
Ans: 0.991

Q: # lookup: normalized growth of NCCS(=O)(=O)O
Ans: 0.977

Q: # lookup: normalized growth of CC[C@@]1(O)C[C@H](O[C@H]2C[C@H](N(C)C)[C@H](O)[C@H](C)O2)c2c(cc3c(c2O)C(=O)c2c(O)ccc(O)c2C3=O)[C@H]1C(=O)OC
Ans: 0.957

Q: # lookup: normalized growth of O=C(O)CCCc1ccc(N(CCCl)CCCl)cc1
Ans: 0.979

Q: # lookup: normalized growth of c1ccc2c(c1)sc1ccccc12
Ans: 0.939

Q: # lookup: normalized growth of NCCCS(=O)(=O)O
Ans: 1.01

Q: # lookup: normalized growth of COC(=O)C1=COC(OC2OC(CO)C(O)C(O)C2O)C2C(C)CC(=O)C12 (configuration not stated)
Ans: 1.02

Q: # lookup: normalized growth of CNC(=O)O/N=C(\C)SC
Ans: 1

Q: # lookup: normalized growth of CN(C)CCN(Cc1ccccc1)c1ccccn1
Ans: 1.01

Q: # lookup: normalized growth of CNCCC(Oc1ccc(C(F)(F)F)cc1)c1ccccc1 (configuration not stated)
Ans: 0.97

Q: # lookup: normalized growth of COc1cc([C@@H]2c3cc4c(cc3C(OC3O[C@@H]5COC(C)O[C@H]5[C@H](O)[C@H]3O)C3COC(=O)[C@@H]32)OCO4)cc(OC)c1O (some centres not stated)
Ans: 1.02

Q: # lookup: normalized growth of CCC[C@H](N[C@@H](C)C(=O)N1[C@H](C(=O)O)C[C@@H]2CCCC[C@@H]21)C(=O)OCC
Ans: 1.01

Q: # lookup: normalized growth of COc1ccc(C(=O)O)cc1OC
Ans: 1.01
